target: Mitogen-activated protein kinase kinase kinase 3 (Homo sapiens, UniProt Q99759); also: in the data inactive means no Kd found up to 30 µM
Sequence (Q99759 whole entry): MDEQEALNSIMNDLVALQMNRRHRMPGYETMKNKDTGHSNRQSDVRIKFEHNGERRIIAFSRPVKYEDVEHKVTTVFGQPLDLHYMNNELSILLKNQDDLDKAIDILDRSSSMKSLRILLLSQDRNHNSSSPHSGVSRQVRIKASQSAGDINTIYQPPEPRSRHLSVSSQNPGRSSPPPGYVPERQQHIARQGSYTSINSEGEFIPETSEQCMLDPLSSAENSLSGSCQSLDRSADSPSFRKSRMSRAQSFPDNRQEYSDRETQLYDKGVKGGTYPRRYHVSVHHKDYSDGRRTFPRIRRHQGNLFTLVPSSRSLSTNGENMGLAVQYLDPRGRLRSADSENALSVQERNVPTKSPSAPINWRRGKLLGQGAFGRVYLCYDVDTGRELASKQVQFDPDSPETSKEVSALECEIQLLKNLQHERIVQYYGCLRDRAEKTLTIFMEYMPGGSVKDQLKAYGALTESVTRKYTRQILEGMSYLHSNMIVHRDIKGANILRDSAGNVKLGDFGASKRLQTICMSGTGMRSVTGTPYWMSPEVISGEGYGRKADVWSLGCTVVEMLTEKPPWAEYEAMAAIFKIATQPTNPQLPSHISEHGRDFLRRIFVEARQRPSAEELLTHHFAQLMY
Calls of active or inactive are those of the source.
endpoint: Kd

Name the reported Kd value associated with the molecule Cc1c(F)cc(C(=O)NC2CC2)cc1-c1ccc(C(=O)NCC(C)(C)C)cn1
> 30 µM (inactive)

Could you do the same for CCn1c(=O)c(-c2cc[nH]n2)cc2c(C)nc(N)nc21 , please?
> 30 µM (inactive)

Could you do the same for CNC(=O)c1cc(Oc2ccc(NC(=O)Nc3ccc(Cl)c(C(F)(F)F)c3)c(F)c2)ccn1 , please?
> 30 µM (inactive)

Could you do the same for COC(=O)[C@@]1(O)C[C@H]2O[C@]1(C)n1c3ccccc3c3c4c(c5c6ccccc6n2c5c31)C(=O)NC4 [K-252A] , please?
> 30 µM (inactive)

Could you do the same for COc1cc(N2CCC(N3CCN(C)CC3)CC2)ccc1Nc1ncnc(Nc2ccccc2S(=O)(=O)C(C)C)n1 , please?
> 30 µM (inactive)

Could you do the same for N[C@@H]1CCCN(c2c(/C=C3\SC(=O)NC3=O)cccc2-c2ccccc2)C1 , please?
> 30 µM (inactive)

Could you do the same for COc1ccc(-c2ccc3c(N4CCOC[C@@H]4C)nc(N4CCOC[C@@H]4C)nc3n2)cc1CO , please?
> 30 µM (inactive)

Could you do the same for CC(=O)Nc1cccc(-n2c(=O)n(C3CC3)c(=O)c3c(Nc4ccc(I)cc4F)n(C)c(=O)c(C)c32)c1 , please?
> 30 µM (inactive)

Could you do the same for CNC(=O)CN1CCC(Oc2cc3c(Nc4cccc(Cl)c4F)ncnc3cc2OC)CC1 , please?
> 30 µM (inactive)

Could you do the same for Cc1ccc(-n2nc(C(C)(C)C)cc2NC(=O)NCc2cc(F)ccc2Oc2ccc3c(cnn3CCO)c2)cc1 , please?
> 30 µM (inactive)

Could you do the same for CNC(=O)c1ccc(C)c(-n2c(C)cc(OCc3ccc(F)cc3F)c(Br)c2=O)c1 , please?
> 30 µM (inactive)

Could you do the same for CN(C)C(=O)c1cc2cnc(Nc3ccc(N4CCNCC4)cn3)nc2n1C1CCCC1 , please?
> 30 µM (inactive)

Could you do the same for Cn1cc(-c2ccc(F)c(C(F)(F)F)c2)nc1C1CCN(c2ncnc3[nH]ncc23)CC1 , please?
> 30 µM (inactive)

Could you do the same for CN1CCC(CNc2ccc3ncc(-c4cccc(OC(F)(F)F)c4)n3n2)CC1 , please?
> 30 µM (inactive)

Could you do the same for Cc1cc2c(F)c(Oc3ncnn4cc(OC[C@@H](C)OC(=O)[C@H](C)N)c(C)c34)ccc2[nH]1 [BRIVANIB ALANINATE] , please?
> 30 µM (inactive)

Could you do the same for COCCNCc1ccc(-c2cc3nccc(Oc4ccc(NC(=S)NC(=O)Cc5ccc(F)cc5)cc4F)c3s2)nc1 , please?
> 30 µM (inactive)
